target: mGluR5 receptor (Sus scrofa, UniProt I3LUI7); assay: Affinity for the mGluR5 receptor: inhibition of 3[H]-MPEP binding in pig brain homogenate; conditions: 10 μM compound, 5 nM 3[H]-MPEP, read-out: mGluR5 receptor inhibition of ^3[H]-MPEP binding [10 μM] in % at a concentration of the example compounds of 10 μM
Sequence (I3LUI7 19-1212): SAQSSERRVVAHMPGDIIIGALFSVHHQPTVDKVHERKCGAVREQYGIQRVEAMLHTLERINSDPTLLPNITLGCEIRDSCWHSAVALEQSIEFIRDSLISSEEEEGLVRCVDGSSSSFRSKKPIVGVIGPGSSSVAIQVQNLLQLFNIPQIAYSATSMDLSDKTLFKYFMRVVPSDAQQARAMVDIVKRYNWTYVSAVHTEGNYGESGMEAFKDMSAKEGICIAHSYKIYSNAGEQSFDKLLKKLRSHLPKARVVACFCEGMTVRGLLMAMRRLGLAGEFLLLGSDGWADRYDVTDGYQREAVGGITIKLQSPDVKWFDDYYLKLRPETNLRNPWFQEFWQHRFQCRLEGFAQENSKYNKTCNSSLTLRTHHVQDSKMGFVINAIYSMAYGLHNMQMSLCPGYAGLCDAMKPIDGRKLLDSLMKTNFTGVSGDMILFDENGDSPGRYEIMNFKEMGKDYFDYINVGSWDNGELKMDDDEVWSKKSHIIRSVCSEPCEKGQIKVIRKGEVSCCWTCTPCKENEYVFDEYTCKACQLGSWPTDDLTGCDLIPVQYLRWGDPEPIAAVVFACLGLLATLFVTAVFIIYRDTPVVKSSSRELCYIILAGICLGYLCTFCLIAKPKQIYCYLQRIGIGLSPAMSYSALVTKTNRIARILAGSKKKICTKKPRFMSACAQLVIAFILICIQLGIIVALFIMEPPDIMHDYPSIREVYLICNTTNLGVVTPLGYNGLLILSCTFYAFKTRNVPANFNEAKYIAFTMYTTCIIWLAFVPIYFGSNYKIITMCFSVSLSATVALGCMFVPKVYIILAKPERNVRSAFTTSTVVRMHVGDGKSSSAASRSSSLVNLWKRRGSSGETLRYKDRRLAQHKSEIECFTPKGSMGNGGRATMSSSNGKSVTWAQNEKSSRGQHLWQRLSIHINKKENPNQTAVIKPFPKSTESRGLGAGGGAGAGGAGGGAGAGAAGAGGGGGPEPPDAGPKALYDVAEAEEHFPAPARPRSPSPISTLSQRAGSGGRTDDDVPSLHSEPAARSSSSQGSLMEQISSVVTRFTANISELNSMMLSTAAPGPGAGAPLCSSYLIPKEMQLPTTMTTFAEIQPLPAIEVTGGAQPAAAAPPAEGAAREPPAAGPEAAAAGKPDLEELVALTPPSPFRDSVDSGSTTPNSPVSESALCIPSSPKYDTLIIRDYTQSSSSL
readout-label: inhibition at 10 µM (%)

{"compound": "COc1ccc(CNc2c(-c3ccc(C#Cc4ccccc4)s3)nc3ccc(C)cn23)cc1 [Example 11]", "readout-label": "inhibition at 10 µM", "endpoint-value": 82}
{"compound": "CC(C)(C)Nc1c(-c2ccc(C#Cc3ccccn3)cc2)nc2ccc(Cl)cn12 [Example 314]", "readout-label": "inhibition at 10 µM", "endpoint-value": 79}
{"compound": "CCc1ccn2c(Nc3ccccc3F)c(-c3ccc(C#Cc4ccccc4)s3)nc2c1 [Example 48]", "readout-label": "inhibition at 10 µM", "endpoint-value": 82}
{"compound": "Cc1cccc(C#Cc2cccc(-c3nc4ccc(Cl)cn4c3NC3CCCCC3)c2)n1 [Example 193]", "readout-label": "inhibition at 10 µM", "endpoint-value": 79}
{"compound": "Cc1ccc2nc(-c3ccc(C#Cc4ccccc4)s3)c(NC(C)c3ccccc3)n2c1 (centres unmarked) [Example 27]", "readout-label": "inhibition at 10 µM", "endpoint-value": 82}
